# Test system: K562;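 note: after 48 h exposure read by CellTiter-Glo luminescence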
# EXPERIMENT SUMMARY: cell viability relative to vehicle control; higher = less cytotoxic
# SETUP CONDITIONS: 10 µM; SRSF2 genotype: SRSF2 wt/wt
Structures can show the parent of a compound that is named as a salt.
Entries whose cell viability is below 90% take 1 (yes); entries at or above 90% take 0 (no).

# COMPOUND, CLASS
measured = [
    ("O=C(O)c1cc(/N=N/c2ccc(O)c(C(=O)O)c2)ccc1O [Olsalazine Sodium]", "1 (yes)"),
    ("Cc1ccsc1C(=CCCN1CCC[C@@H](C(=O)O)C1)c1sccc1C [Tiagabine]", "0 (no)"),
    ("CCN(CC)CC(=O)Nc1c(C)cccc1C [Lidocaine hydrochloride]", "0 (no)"),
    ("C[N+](C)(C)C[C@H](O)CC(=O)[O-] [L-carnitine (Levocarnitine)]", "0 (no)"),
    ("Oc1c(Cl)cc(Cl)c2cccnc12 [Chloroxine]", "1 (yes)"),
    ("CC(C)c1onc(-c2c(Cl)cccc2Cl)c1COc1ccc(/C=C/c2cccc(C(=O)O)c2)c(Cl)c1", "0 (no)"),
    ("CN1CCC(=C2c3ccccc3CCn3c(C=O)cnc32)CC1 [Alcaftadine]", "0 (no)"),
]
